Target: HLA-B*07 (human)
Test: UV peptide exchange ELISA; ++ = yield >20%
This section presents binders with their documented peptide exchange yield values.
Reported property: peptide exchange yield

> print(dat)
         binder       reported.property  assay.value
1    MALSVLRLAL  peptide exchange yield    20 to 50%
2  FLIPRAGWLAGL  peptide exchange yield    20 to 50%
3  RPSGTAGAALLA  peptide exchange yield    20 to 50%
4      LPPHIFAI  peptide exchange yield    20 to 50%
5    IALMKLAGPL  peptide exchange yield    20 to 50%
6    IPVSHPVLTF  peptide exchange yield    20 to 50%
7   FVPPSGPSNPM  peptide exchange yield    20 to 50%
8      SPFWIHQA  peptide exchange yield    20 to 50%

All figures here come from patent US20200040057A1.
